Study the reported IC50 values for UniProt P21554 given below; they originate from different publications.
Report only the number, with the unit nM understood.

Record excerpt, results attached:
O=C(NCc1ncc(C(F)(F)F)cc1Cl)c1ccc2c(c1)C1(CCS(=O)(=O)CC1)[C@H](C1CC1)N2S(=O)(=O)c1ccc(F)cc1 3400
CC(=O)Nc1c(C(C)=O)c(=O)n(CC(C)C)c2nc(-c3ccc(Cl)cc3Cl)c(-c3ccc(Cl)cc3)cc12 2.3

Okay, now this compound:
The compound `COc1cc(OC)cc(C(=O)N[C@H]2CC[C@H](Nc3nc(C)cc(N(C)C)n3)CC2)c1` showed IC50 equal to 63.1

----------
Cannabinoid receptor 1 (Homo sapiens, UniProt P21554) pIC50, compiled from various sources.
Sequence (P21554 whole entry): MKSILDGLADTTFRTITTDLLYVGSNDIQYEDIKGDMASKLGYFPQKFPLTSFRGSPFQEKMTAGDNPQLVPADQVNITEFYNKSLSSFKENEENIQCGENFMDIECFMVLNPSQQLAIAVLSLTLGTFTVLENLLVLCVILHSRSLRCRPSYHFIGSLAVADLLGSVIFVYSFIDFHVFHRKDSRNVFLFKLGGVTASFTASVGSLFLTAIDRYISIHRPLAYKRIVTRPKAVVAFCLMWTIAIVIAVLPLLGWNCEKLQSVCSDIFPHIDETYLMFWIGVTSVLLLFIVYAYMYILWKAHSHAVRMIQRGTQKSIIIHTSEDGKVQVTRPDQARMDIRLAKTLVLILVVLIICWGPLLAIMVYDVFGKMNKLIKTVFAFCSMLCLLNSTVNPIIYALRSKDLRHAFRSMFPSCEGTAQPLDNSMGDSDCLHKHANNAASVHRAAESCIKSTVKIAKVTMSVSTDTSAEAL
pIC50: −log10 of the molar value.
Cut-off 8 on pIC50, inclusive. At or above means 1.0; below means 0.0.

COMPOUND	CLASS_ASSIGNMENT
CC(=O)Nc1c(C(C)=O)c(=O)n(CC2CCCO2)c2nc(-c3ccc(Cl)cc3Cl)c(-c3ccc(Cl)cc3)cc12 (stereo not given)	1.0
O=C(c1ccc(Sc2ccccc2)cc1)C1CCN(C(=O)c2cc(O)ccc2F)CC1	0.0
CCN(CC)C(=O)CCC1(c2ccc(Cl)cc2)c2c(OC)cccc2-c2nccn21 (stereo not given)	0.0
COc1cnc(-c2cccc3c2C[C@H](NC(=O)c2ccc(COCC(F)(F)F)nc2)CO3)cn1	0.0
CC(=O)c1c(N)c2cc(-c3ccc(Cl)cc3)c(-c3ccc(Cl)cc3Cl)nc2n(C)c1=O	0.0
CC(=O)Nc1c(C(C)=O)c(=O)[nH]c2nc(-c3ccc(Cl)cc3Cl)c(-c3ccc(Cl)cc3)cc12	0.0

Data request: Item CC(C)(C)C1CC(=O)c2cc(-c3ccc(Cl)cc3)c(-c3ccccc3Cl)nc2O1 (racemic) with pIC50 of 8 or above?
Data returned: 1.0

Data request: For this compound, is measured pIC50 8 or higher? `CN(C)C(=O)Nc1c(C(=O)C(C)(C)C)oc2nc(-c3ccccc3Cl)c(-c3ccc(Cl)cc3)cc12`
Data returned: 1.0

Data request: Does the compound `CC(C)C(=O)c1oc2nc(-c3ccccc3Cl)c(-c3ccc(Cl)cc3)cc2c1N` have recorded pIC50 that is 8 or more?
Data returned: 1.0

Data request: Check if pIC50 >= 8 (inclusive). Item: `CC(=O)c1c(N(C)C)c2cc(-c3ccc(Cl)cc3)c(-c3ccc(Cl)cc3Cl)nc2n(C)c1=O`
Data returned: 0.0

----------
For reference, the following IC50 results for Cannabinoid receptor 1 (Homo sapiens, UniProt P21554) were taken from various sources.
Report the value in nM with no unit label.

Example results:
CC(=O)Nc1c(C(C)C)c(=O)n(C)c2nc(-c3ccc(Cl)cc3Cl)c(-c3ccc(Cl)cc3)cc12 15
CN1CCC2(CC1)CC(=O)c1cc(-c3ccc(Cl)cc3)c(-c3ccccc3Cl)nc1O2 790
CCC1(CC)CC(=O)c2cc(-c3ccc(Cl)cc3)c(-c3ccccc3Cl)nc2O1 15

Note to self: IC50 recorded for `CCC(=O)c1oc2nc(-c3ccccc3Cl)c(-c3ccc(Cl)cc3)cc2c1N` was 13
